Where do the numbers come from? From the Immune Epitope Database (IEDB).

# Target or test system: HLA-A*11:01
# Experiment summary: IEDB peptide-MHC binding, purified MHC/competitive/fluorescence; bounds were set here for any values at or beyond the usual limits of such assays
# Particulars: source organism: Homo sapiens
Observable: pIC50
Scale for pIC50: -log10 of concentration given in mol/L; no unit attached.

Query string: Return pIC50 measured with HLA-A*11:01 given this sequence: KIGDFGLATVK
Result string: 7.49

###

# Target or test system: HLA-A*03:01
# Experiment summary: IEDB peptide-MHC binding, purified MHC/competitive/fluorescence; filed as Kd, often an IC50 or EC50 that approximates it; bounds were set here for any values at or beyond the usual limits of such assays
# Particulars: source organism: Cryptosporidium parvum Iowa II
Observable: pKd
Scale for pKd: -log10 of concentration given in mol/L; no unit attached.

Query string: Return reported pKd; argument: KIVPLPPMY
Result string: 6.10
